- Tested on: lymphoma cell line NU-DUL-1
- experiment: Standard 6-day growth-death assay, NU-DUL-1
- Assay type: cell-based
- conditions: Homo sapiens, 144 h, single agent or fixed 1:1 combination, average of n=2, read-out: gIC50
readout_kind: pIC50
# log scale: pIC50 equals minus log10 of the concentration in mol/L

Ask: Item under review: `O=C(NC[C@H](O)CN1CCc2ccccc2C1)c1ccnc(NC2CCC2)c1` . Reported pIC50?
Reply: 5.43

Ask: Item under review: CC1(C)CCC(CN2CCN(c3ccc(C(=O)NS(=O)(=O)c4ccc(NCC5CCOCC5)c([N+](=O)[O-])c4)c(Oc4cnc5[nH]ccc5c4)c3)CC2)=C(c2ccc(Cl)cc2)C1 [ABT-199, venetoclax, reference compound] . Reported pIC50?
Reply: 5.52

// data source = patent US20210386738A1
